Experiment summary: in vitro
Experimental conditions: human, hela cells, % viability
Assignment: determine reported viability at 28.5 h, 10 µM for the given compounds.
Numbers only, in %.

OCc1cccc(-c2nccnc2NCc2ccc(F)cc2)c1 [CBK037670]: 103
COc1ccccc1-c1nccnc1OCc1ccccc1 [CBK106817]: 108
CC(=O)c1sc(NC(=O)c2ccccc2)nc1-c1ccccc1 [CBK287315]: 87.8

// each listed compound needs a value for viability at 28.5 h, 10 µM
1. CN(C)c1ccccc1-c1cnc(N2CCOCC2)c2nccn12 [CBK091280]
2. CC(C)n1nnnc1-c1ccccc1NS(=O)(=O)C1CC1 [CBK305509]
3. CCCn1ncc(CN2C[C@@H]3CCCN3C[C@@H]2CCSC)c1C [CBK285426]
4. COc1ccc2c(c1OC)C(=O)N(c1cccc(/C=C/C(=O)O)c1)C2 [CBK109932]
5. COc1ccc(Cl)cc1S(=O)(=O)N1CCCC(C(=O)NCc2ccccn2)C1 (stereo not drawn) [CBK269761]
6. O=C(O)c1cc(S(=O)(=O)NC(CO)C(O)c2ccc([N+](=O)[O-])cc2)ccc1Br (stereo not drawn) [CBK262515]

90.7
97.7
104
90.3
96.7
104
